- assayed target: purified interference factor(s) from serum of Donor B
- procedure summary: SPR, interference factor on CM5 chip
property measured: binding as % of Reference Sequence (=100%)
Numbers only, in %.

Sample records with binding as % of Reference Sequence (=100%):
{"binder": "Nanobody or Nanobody construct of SEQ ID NO: 82 (VHH) VHH: EVQLVESGGGLVQPGGSLRLSCAASRSIGRLDRMGWYRHRPGEPRELVATITGGSSINYGDSVKGRFTISIDNSKNTVYLQMNSLRAEDTAVYYCNFNKYVTSRDTWGQGTLVTVSS", "reported result": 80}
{"binder": "Nanobody or Nanobody construct of SEQ ID NO: 89 (VHH) VHH: EVQLVESGGGSVQAGGSLRLSCAASRSIGRLDRMGWYRHRPGEPRELVATITGGSSINYGDSVKGRFTISIDNSKNTVYLQMNSLRPEDTAVYYCNFNKYVTSRDTWGQGTLVQVGG", "reported result": 5}

**Query** State, in one line, measured binding as % of Reference Sequence (=100%) of Nanobody or Nanobody construct of SEQ ID NO: 70 (VHH) VHH: EVQLVESGGGLVQPGGSLRLSCAASRSIGRLDRMGWYRHRPGEPRELVATITGGSSINYGDSVKGRFTISIDNSKNTVYLQMNSLRPEDTAVYYCNFNKYVTSRDTWGQGTLVQVSS
**Result** 105
